Value source: PubChem BioAssay AID485346

# system-tested: Protein Mdm4 (Homo sapiens) + E3 ubiquitin-protein ligase Mdm2 (Homo sapiens) (UniProt O15151+Q00987)
# Sequence (O15151 whole entry, looked up): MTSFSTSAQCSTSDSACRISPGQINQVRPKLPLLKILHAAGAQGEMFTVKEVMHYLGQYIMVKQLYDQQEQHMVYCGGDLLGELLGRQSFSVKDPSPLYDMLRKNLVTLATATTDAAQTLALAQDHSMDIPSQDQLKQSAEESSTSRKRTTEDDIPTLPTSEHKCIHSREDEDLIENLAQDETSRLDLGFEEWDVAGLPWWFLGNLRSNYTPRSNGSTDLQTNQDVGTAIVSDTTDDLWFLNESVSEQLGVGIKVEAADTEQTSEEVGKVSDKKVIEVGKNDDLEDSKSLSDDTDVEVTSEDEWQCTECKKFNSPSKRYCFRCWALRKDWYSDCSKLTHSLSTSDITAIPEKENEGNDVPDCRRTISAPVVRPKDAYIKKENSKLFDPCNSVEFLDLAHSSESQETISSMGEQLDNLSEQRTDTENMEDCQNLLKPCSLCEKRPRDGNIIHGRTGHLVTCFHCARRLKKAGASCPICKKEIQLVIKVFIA
# Sequence (Q00987 whole entry, looked up): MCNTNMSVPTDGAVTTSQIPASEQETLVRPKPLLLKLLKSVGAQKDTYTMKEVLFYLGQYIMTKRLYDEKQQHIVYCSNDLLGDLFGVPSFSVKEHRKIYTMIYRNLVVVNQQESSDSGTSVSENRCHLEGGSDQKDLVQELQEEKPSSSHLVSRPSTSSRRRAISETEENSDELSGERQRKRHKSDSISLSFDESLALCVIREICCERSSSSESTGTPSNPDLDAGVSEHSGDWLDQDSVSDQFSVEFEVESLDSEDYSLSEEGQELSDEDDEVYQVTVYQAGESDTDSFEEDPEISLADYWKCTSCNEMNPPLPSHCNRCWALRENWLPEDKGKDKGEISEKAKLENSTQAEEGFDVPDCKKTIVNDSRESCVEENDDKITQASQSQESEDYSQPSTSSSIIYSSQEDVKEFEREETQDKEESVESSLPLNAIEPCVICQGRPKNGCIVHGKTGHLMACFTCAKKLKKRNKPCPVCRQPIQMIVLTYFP
# experiment-summary: inhibitors of human Mdm2-MdmX association, primary screen, cell-based, luminescence, split luciferase, SaOS-2, uHTS (AID 485346)
# measurement-setup: SaOS-2 split-luciferase Mdm2/MdmX complementation, at 8 µM, hits give high values
Hit rate of the full screen: of about 330,000 compounds, about 10,000 (3%) were called active. The list comes from a sample in which actives are over-represented; it also holds close analogues and randomly drawn compounds.
Answer false (0) if inhibition is under 10%, and true (1) if it is 10% or more.

INSERT INTO measurements (chem_smiles, class) VALUES
  ('Cc1ccc(/C=C2\SC(=S)N(CCC(=O)Nc3ccc(O)cc3)C2=O)cc1', 'true (1)'),
  ('COc1cccc(Cn2cc(/C=N/NC(=O)c3cc(O)cc(O)c3)c3ccccc32)c1', 'true (1)'),
  ('Cc1ccc(/C=C2/SC(=S)N(CCC(=O)NCCCN3CCOCC3)C2=O)cc1', 'false (0)'),
  ('Cc1c(C=O)c2ccccc2n1CCOc1ccccc1', 'true (1)'),
  ('N#CCC(=O)N/N=C/c1cn(Cc2ccc3ccccc3c2)c2ccccc12', 'true (1)'),
  ('CCC(C)(C)c1ccc(Oc2ccc(NC(=O)COC(=O)C3=COCCO3)cc2)cc1', 'false (0)'),
  ('COc1ccc(/C=C2\SC(=S)N(CCC(=O)Nc3ccccn3)C2=O)cc1OC', 'true (1)'),
  ('O=C(CCCN1C(=O)/C(=C\c2ccccc2)SC1=S)Nc1ccccc1O', 'true (1)'),
  ('COc1ccc(/C=C2/SC(=O)N(CCCCCC(=O)Nc3ccccc3C(=O)O)C2=S)cc1', 'false (0)'),
  ('Cc1ccoc1C(=O)Nc1cccc(Oc2ccccc2)c1', 'false (0)');
